STUDY SYSTEM: TLR2/TLR6 (Homo sapiens, UniProt O60603+Q9Y2C9)
Sequence (O60603 whole entry): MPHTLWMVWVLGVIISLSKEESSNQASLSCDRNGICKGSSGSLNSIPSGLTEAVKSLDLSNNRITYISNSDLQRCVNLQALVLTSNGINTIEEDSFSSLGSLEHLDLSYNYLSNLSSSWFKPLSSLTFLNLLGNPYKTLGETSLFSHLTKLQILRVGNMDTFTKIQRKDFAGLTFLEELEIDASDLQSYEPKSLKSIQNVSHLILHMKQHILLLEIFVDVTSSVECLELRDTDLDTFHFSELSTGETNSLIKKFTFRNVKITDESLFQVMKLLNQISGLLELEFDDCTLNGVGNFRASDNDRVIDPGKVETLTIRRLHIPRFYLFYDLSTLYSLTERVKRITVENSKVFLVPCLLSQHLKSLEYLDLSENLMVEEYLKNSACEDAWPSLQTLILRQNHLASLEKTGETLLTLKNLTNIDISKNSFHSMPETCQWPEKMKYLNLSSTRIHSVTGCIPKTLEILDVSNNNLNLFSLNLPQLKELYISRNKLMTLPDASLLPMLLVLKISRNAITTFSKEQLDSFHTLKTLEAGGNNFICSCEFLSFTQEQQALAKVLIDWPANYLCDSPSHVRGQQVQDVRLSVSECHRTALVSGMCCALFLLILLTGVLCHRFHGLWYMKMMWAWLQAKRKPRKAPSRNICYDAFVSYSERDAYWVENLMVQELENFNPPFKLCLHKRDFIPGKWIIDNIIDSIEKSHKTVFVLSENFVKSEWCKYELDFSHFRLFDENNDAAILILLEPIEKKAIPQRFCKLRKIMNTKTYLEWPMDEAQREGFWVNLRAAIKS
Sequence (Q9Y2C9 whole entry): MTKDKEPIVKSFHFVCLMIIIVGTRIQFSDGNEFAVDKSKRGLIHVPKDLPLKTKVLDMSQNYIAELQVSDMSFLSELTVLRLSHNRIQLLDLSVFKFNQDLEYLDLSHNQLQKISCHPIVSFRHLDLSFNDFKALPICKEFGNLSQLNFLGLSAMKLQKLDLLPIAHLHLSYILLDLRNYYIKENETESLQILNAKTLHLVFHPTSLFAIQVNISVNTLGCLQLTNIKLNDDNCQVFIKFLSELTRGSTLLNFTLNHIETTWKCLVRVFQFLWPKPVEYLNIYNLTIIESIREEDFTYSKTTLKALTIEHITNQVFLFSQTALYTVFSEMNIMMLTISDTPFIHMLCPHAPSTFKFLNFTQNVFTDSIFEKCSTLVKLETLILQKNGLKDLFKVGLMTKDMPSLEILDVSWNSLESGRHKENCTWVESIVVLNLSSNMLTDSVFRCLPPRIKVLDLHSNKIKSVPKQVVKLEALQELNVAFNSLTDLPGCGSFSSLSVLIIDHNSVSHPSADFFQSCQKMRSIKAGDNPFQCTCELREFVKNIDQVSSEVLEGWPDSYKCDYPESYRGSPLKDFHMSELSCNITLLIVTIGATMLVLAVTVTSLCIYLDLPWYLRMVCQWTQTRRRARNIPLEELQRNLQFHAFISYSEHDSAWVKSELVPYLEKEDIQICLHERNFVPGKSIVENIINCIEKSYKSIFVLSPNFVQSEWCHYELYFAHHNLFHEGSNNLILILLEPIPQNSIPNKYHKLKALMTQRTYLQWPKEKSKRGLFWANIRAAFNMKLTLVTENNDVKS
PROTOCOL DESCRIPTION: Agonist activity at human TLR2/TLR6 expressed in HEK-Blue hTLR2-TLR6 cells by SEAP reporter gene based Quanti-blue assay
pEC50: −log10 of the molar value. Where a SMILES comes first, the peptide text is derived from it. The star is where a group is joined. Propyl(2R-PamO,3-PamO) = CCCCCCCCCCCCCCCC(=O)OC[C@H](C*)OC(=O)CCCCCCCCCCCCCCC; Palmitoyl = CCCCCCCCCCCCCCCC(=O)*
Decision: pEC50 compared against 8; not below it gives met, below it gives not met.

Does the molecule `CCCCCCCCCCCCCCCC(=O)OC[C@H](CSC[C@H](N)C(=O)N[C@@H](CO)C(=O)OC)OC(=O)CCCCCCCCCCCCCCC` have recorded pEC50 that is 8 or more? met

Item: `CCCCCCCCCCCCCCCC(=O)OC[C@H](CSC[C@H](NC(C)=O)C(=O)N[C@@H](CO)C(=O)OC)OC(=O)CCCCCCCCCCCCCCC` met

Item: `CCCCCCCCCCCCCCCC(=O)OC[C@@H](CSC[C@H](N)C(=O)N[C@@H](CO)C(=O)OC)OC(=O)CCCCCCCCCCCCCCC` not met

Item: `CCCCCCCCCCCCCCCC(=O)OC[C@@H](CSC[C@H](NC(=O)OC(C)(C)C)C(=O)N[C@@H](COC(C)(C)C)C(=O)OC)OC(=O)CCCCCCCCCCCCCCC` not met

Item: `CCCCCCCCCCCCCCCC(=O)OC[C@@H](CSC[C@H](NC(C)=O)C(=O)N[C@@H](CO)C(=O)OC)OC(=O)CCCCCCCCCCCCCCC` not met

Item: CCCCCCCCCCCCCCCC(=O)OC[C@H](CSC[C@H](N)C(=O)N[C@@H](CO)C(=O)N[C@@H](CCCCN)C(=O)N[C@@H](CCCCN)C(=O)N[C@@H](CCCCN)C(=O)N[C@@H](CCCCN)C(=O)O)OC(=O)CCCCCCCCCCCCCCC (H-C(Propyl(2R-PamO,3-PamO))SKKKK-OH) met

Item: CCCCCCCCCCCCCCCC(=O)OCC(CSC[C@H](N)C(=O)N[C@@H](CO)C(=O)OC)OC(=O)CCCCCCCCCCCCCCC (mixture of isomers) met

Item: `CCCCCCCCCCCCCCCC(=O)OC[C@H](CSC[C@H](NC(=O)OC(C)(C)C)C(=O)N[C@@H](COC(C)(C)C)C(=O)OC)OC(=O)CCCCCCCCCCCCCCC` not met

Item: CCCCCCCCCCCCCCCC(=O)N[C@@H](CSC[C@@H](COC(=O)CCCCCCCCCCCCCCC)OC(=O)CCCCCCCCCCCCCCC)C(=O)N[C@@H](CO)C(=O)N[C@@H](CCCCN)C(=O)N[C@@H](CCCCN)C(=O)N[C@@H](CCCCN)C(=O)N[C@@H](CCCCN)C(=O)O (Palmitoyl-C(Propyl(2R-PamO,3-PamO))SKKKK-OH) not met

Item: CCCCCCCCCCCCCCCC(=O)OCC(CSC[C@H](NC(C)=O)C(=O)N[C@@H](CO)C(=O)OC)OC(=O)CCCCCCCCCCCCCCC (mixture of isomers) met

Item: CCCCCCCCCCCCCCCC(=O)OCC(CSC[C@H](NC(=O)OC(C)(C)C)C(=O)N[C@@H](COC(C)(C)C)C(=O)OC)OC(=O)CCCCCCCCCCCCCCC (mixture of isomers) not met
